- system.under.test: γ-Secretase (Homo sapiens, UniProt P49768)
- Construct: transfected H4 (human neuroglioma) cells stably expressing constructs containing wild-type and mutant forms of β-APP; endogenous in cells; host or cells: H4 human neuroglioma cells, stably transfected with beta-APP (the substrate, not the enzyme)
- measurement.description: Inhibition of γ-secretase: ELISA of β-AP made by transfected H4 cells in culture
- Format: cell-based
- test.conditions: H4 (human neuroglioma) cells expressing β-APP (Swedish variant typically), approximately 16 hours incubation, β-AP in conditioned medium by ELISA
Structures can show the parent of a compound that is named as a salt.
readout.label: Activity Rating (Inhibition of γ-Secretase)

Some solved cases for reference:
- compound: "CCCCNC(=O)[C@H](C)C[C@H](O)[C@H](CC1CCCCC1)NCCCC(C)C (relative stereo) [Example 19, hydrochloride]"
  value.observed: "+++ (+++ < = 10)"
- compound: "CCCCNC(=O)[C@@H](C[C@H](O)[C@H](CC1CCCCC1)NCc1ccc2ccccc2c1)C(C)C (relative stereo) [Example 38, hydrochloride]"
  value.observed: "+ (+ > 25 & < = 50 μM)"
- compound: "C=C(C)C[C@H](C[C@H](O)[C@H](CC1CCCCC1)NCCCC(C)C)C(=O)NCCCC (relative stereo) [Example 21, hydrochloride]"
  value.observed: "+++ (+++ < = 10)"
- compound: "CCCCNC(=O)[C@@H](C[C@H](O)[C@H](CC1CCCCC1)NCCCC(C)C)C(C)C (relative stereo) [Example 20, hydrochloride]"
  value.observed: "+++ (+++ < = 10)"

Next up:
Inquiry: What does the record list as Activity Rating (Inhibition of γ-Secretase) for CCCCNC(=O)[C@@H](C[C@H](O)[C@H](CC1CCCCC1)NCCOC(C)C)C(C)C (relative stereo) [Example 39] ?
Reply text: + (+ > 25 & < = 50 μM)
